Tested on: 186277-243-T-J2-PDC complex spheroids, viability
Experiment: Anticancer human tumor 186277-243-T-J2-PDC patient-derived colon adenocarcinoma cell line growth inhibition [RAS]
Settings: second compound 0.316 µM; first compound 0.0316 µM; stronger effect = lower value
Recorded Endpoint: viability, T/C (%)
One number for each entry, in %.

Solved entries:
C[C@@H](NC(=O)c1ncnc(N)c1Cl)c1ncc(C(=O)Nc2cc(C(F)(F)F)c(Cl)cn2)s1 + C=CC(=O)N1CCN(c2nc(OCC3CCCN3C)nc3c(F)c(-c4nc(N)cc(C)c4C(F)(F)F)c(Cl)cc23)C(C)C1: 103
C[C@@H](NC(=O)c1ncnc(N)c1Cl)c1ncc(C(=O)Nc2cc(C(F)(F)F)c(Cl)cn2)s1 + C#Cc1c(F)ccc2cc(O)cc(-c3ncc4c(N5CC6CCC(C5)N6)nc(OCC56CCCN5CC(F)C6)nc4c3F)c12: 36.3
CCC(CC)c1cc(NC2CCC(N)C2)n2nccc2n1 (stereo not given) + C=CC(=O)N1CCN(c2nc(OCC3CCCN3C)nc3c(F)c(-c4nc(N)cc(C)c4C(F)(F)F)c(Cl)cc23)C(C)C1: 81

I have 2 compounds here; please give me viability, T/C for each one.
1. Cc1nc(N2CCC3(CC2)COC(C)C3N)c(CO)nc1Sc1ccnc(N)c1Cl (stereo not given) + C#Cc1c(F)ccc2cc(O)cc(-c3ncc4c(N5CC6CCC(C5)N6)nc(OCC56CCCN5CC(F)C6)nc4c3F)c12
2. C=CC(=O)Nc1cc(Nc2nccc(-c3cn(C)c4ccccc34)n2)c(OC)cc1N(C)CCN(C)C + C#Cc1c(F)ccc2cc(O)cc(-c3ncc4c(N5CC6CCC(C5)N6)nc(OCC56CCCN5CC(F)C6)nc4c3F)c12

1. 14.7
2. 22.7

* * *

System: 186277-243-T-J2-PDC complex spheroids, viability
Test: Anticancer human tumor 186277-243-T-J2-PDC cell line growth inhibition [RAS];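 also: spheroids exposed to compounds for 7 days before viability read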
Settings: curve of first compound; second compound 0.00316 µM
Kindly supply the reported IC50 values for the records listed here.
Numbers only, in nM.

CC1(O)CCCC1n1c(=O)c(C(F)F)cc2cnc(NC3CCN(S(C)(=O)=O)CC3)nc21 (stereo not drawn) + C=CC(=O)N1CCN(c2nc(OCC3CCCN3C)nc3c(F)c(-c4nc(N)cc(C)c4C(F)(F)F)c(Cl)cc23)C(C)C1: 4050
CC(C)NCC(C(=O)N1CCN(c2ncnc3c2C(C)CC3O)CC1)c1ccc(Cl)cc1 (stereo not drawn) + C=CC(=O)N1CCN(c2nc(OCC3CCCN3C)nc3c(F)c(-c4nc(N)cc(C)c4C(F)(F)F)c(Cl)cc23)C(C)C1: 1680

// switching to the query compound
For CC(C)n1nc(-c2ccc3oc(N)nc3c2)c2c(N)ncnc21 + C=CC(=O)N1CCN(c2nc(OCC3CCCN3C)nc3c(F)c(-c4nc(N)cc(C)c4C(F)(F)F)c(Cl)cc23)C(C)C1 , write its IC50. 85.1

* * *

Tested on: 186277-243-T-J2-PDC complex spheroids, viability
Assay: Anticancer human tumor 186277-243-T-J2-PDC cell line growth inhibition [RAS];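 also: spheroids exposed to compounds for 7 days before viability read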
Conditions: curve of first compound; second compound 0.316 µM
Recorded Endpoint: IC50

Illustrative cases are given below, each with its answer.
CC(C)NCC(C(=O)N1CCN(c2ncnc3c2C(C)CC3O)CC1)c1ccc(Cl)cc1 (stereo unspecified) + C=CC(=O)N1CCN(c2nc(OCC3CCCN3C)nc3c(F)c(-c4nc(N)cc(C)c4C(F)(F)F)c(Cl)cc23)C(C)C1: 2530 nM
CCN1CCN(Cc2ccc(Nc3ncc(F)c(-c4cc(F)c5nc(C)n(C(C)C)c5c4)n3)nc2)CC1 + C=CC(=O)N1CCN(c2nc(OCC3CCCN3C)nc3c(F)c(-c4nc(N)cc(C)c4C(F)(F)F)c(Cl)cc23)C(C)C1: > 1000 nM
CC(C)NCC(C(=O)N1CCN(c2ncnc3c2C(C)CC3O)CC1)c1ccc(Cl)cc1 (stereo unspecified) + C#Cc1c(F)ccc2cc(O)cc(-c3ncc4c(N5CC6CCC(C5)N6)nc(OCC56CCCN5CC(F)C6)nc4c3F)c12: < 31.6 nM

Give me IC50 for each of these compounds, listed below.
1. C=CC(=O)N1CCN(c2nc(OCC3CCCN3C)nc3c(F)c(-c4nc(N)cc(C)c4C(F)(F)F)c(Cl)cc23)C(C)C1 (stereo unspecified) + C#Cc1c(F)ccc2cc(O)cc(-c3ncc4c(N5CC6CCC(C5)N6)nc(OCC56CCCN5CC(F)C6)nc4c3F)c12
2. C[C@@H](NC(=O)c1ncnc(N)c1Cl)c1ncc(C(=O)Nc2cc(C(F)(F)F)c(Cl)cn2)s1 + C=CC(=O)N1CCN(c2nc(OCC3CCCN3C)nc3c(F)c(-c4nc(N)cc(C)c4C(F)(F)F)c(Cl)cc23)C(C)C1
3. Cc1nc(N2CCC3(CC2)COC(C)C3N)c(CO)nc1Sc1ccnc(N)c1Cl (stereo unspecified) + C#Cc1c(F)ccc2cc(O)cc(-c3ncc4c(N5CC6CCC(C5)N6)nc(OCC56CCCN5CC(F)C6)nc4c3F)c12

["< 3.16 nM", "> 10000 nM", "< 31.6 nM"]

* * *

Tested on: 186277-243-T-J2-PDC complex spheroids, viability
Assay: Anticancer human tumor 186277-243-T-J2-PDC cell line growth inhibition [RAS]; active means viability on the fitted dose curve at most 10% of control; inactive means the rest;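 also: spheroids exposed to compounds for 7 days before viability read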
Details: second compound 0.01 µM; first compound 1 µM
Respond only with the outcome that fits, drawn from active, inactive

CC(=O)OC12COC1CC(O)C1(C)C(=O)C(O)C3=C(C)C(OC(=O)C(O)C(NC(=O)OC(C)(C)C)c4ccccc4)CC(O)(C(OC(=O)c4ccccc4)C21)C3(C)C (configuration not stated) + C=CC(=O)N1CCN(c2nc(OCC3CCCN3C)nc3c(F)c(-c4nc(N)cc(C)c4C(F)(F)F)c(Cl)cc23)C(C)C1: active
CC(C)NCC(C(=O)N1CCN(c2ncnc3c2C(C)CC3O)CC1)c1ccc(Cl)cc1 (configuration not stated) + C=CC(=O)N1CCN(c2nc(OCC3CCCN3C)nc3c(F)c(-c4nc(N)cc(C)c4C(F)(F)F)c(Cl)cc23)C(C)C1: inactive
O=C(c1ccc(F)c(F)c1Nc1ccc(I)cc1F)N1CC(O)([C@@H]2CCCCN2)C1 + C=CC(=O)N1CCN(c2nc(OCC3CCCN3C)nc3c(F)c(-c4nc(N)cc(C)c4C(F)(F)F)c(Cl)cc23)C(C)C1: active
C[C@@H](NC(=O)c1ncnc(N)c1Cl)c1ncc(C(=O)Nc2cc(C(F)(F)F)c(Cl)cn2)s1 + C=CC(=O)N1CCN(c2nc(OCC3CCCN3C)nc3c(F)c(-c4nc(N)cc(C)c4C(F)(F)F)c(Cl)cc23)C(C)C1: inactive
NC1c2ccccc2OC12CCN(c1cnc3c(N4CCCc5ncccc54)n[nH]c3n1)CC2 (configuration not stated) + C=CC(=O)N1CCN(c2nc(OCC3CCCN3C)nc3c(F)c(-c4nc(N)cc(C)c4C(F)(F)F)c(Cl)cc23)C(C)C1: inactive
CC1(O)CCCC1n1c(=O)c(C(F)F)cc2cnc(NC3CCN(S(C)(=O)=O)CC3)nc21 (configuration not stated) + C=CC(=O)N1CCN(c2nc(OCC3CCCN3C)nc3c(F)c(-c4nc(N)cc(C)c4C(F)(F)F)c(Cl)cc23)C(C)C1: inactive
Cc1nc(N2CCC3(CC2)COC(C)C3N)c(CO)nc1Sc1ccnc(N)c1Cl (configuration not stated) + C=CC(=O)N1CCN(c2nc(OCC3CCCN3C)nc3c(F)c(-c4nc(N)cc(C)c4C(F)(F)F)c(Cl)cc23)C(C)C1: inactive
Nc1ccn(C2OC(CO)C(O)C2(F)F)c(=O)n1 (configuration not stated) + C=CC(=O)N1CCN(c2nc(OCC3CCCN3C)nc3c(F)c(-c4nc(N)cc(C)c4C(F)(F)F)c(Cl)cc23)C(C)C1: inactive

What did this assay record as the result for CC(Nc1ccc2c(c1)OCCn1cc(N3C(=O)OCC3C(F)F)nc1-2)C(N)=O (configuration not stated) + C=CC(=O)N1CCN(c2nc(OCC3CCCN3C)nc3c(F)c(-c4nc(N)cc(C)c4C(F)(F)F)c(Cl)cc23)C(C)C1 ? inactive

Hello, I am checking results. What call was entered for CCN1CCN(Cc2ccc(Nc3ncc(F)c(-c4cc(F)c5nc(C)n(C(C)C)c5c4)n3)nc2)CC1 + C=CC(=O)N1CCN(c2nc(OCC3CCCN3C)nc3c(F)c(-c4nc(N)cc(C)c4C(F)(F)F)c(Cl)cc23)C(C)C1 ? inactive

For this molecule, state the assay outcome: C=CC(=O)Nc1cc(Nc2nccc(-c3cn(C)c4ccccc34)n2)c(OC)cc1N(C)CCN(C)C + C=CC(=O)N1CCN(c2nc(OCC3CCCN3C)nc3c(F)c(-c4nc(N)cc(C)c4C(F)(F)F)c(Cl)cc23)C(C)C1 inactive

Each molecule tested received a call. Report the one for CCC(CC)c1cc(NC2CCC(N)C2)n2nccc2n1 (configuration not stated) + C=CC(=O)N1CCN(c2nc(OCC3CCCN3C)nc3c(F)c(-c4nc(N)cc(C)c4C(F)(F)F)c(Cl)cc23)C(C)C1 . inactive
